Could you please report measured 500 μM relative viability for the items listed next?
Test system: HEK293 cells
Assay: Toxicity to HEK293 cells (MTT)
Format: cell-based
Conditions: HEK293, 500 μM, 12 hours, control = 1
Protocol: 1. HEK293 cells were seeded in 96-well plate at a density of 25,000 cells/well the day before the experiment starts; 2. After the cells reach 50˜60% confluency, media was taken out, and 100 μL of fresh media was added to each well; 3. F-derivatives were plated at 100 and 500 μM (in duplicates) concentrations; 4. […] Absorbance was measured at 570 nm. Assay for Determining Toxicity to HEK293 and Neuro2A Cells • 1. […] Absorbance was measured at 570 nm.
API note: the answer field is a bare number with no unit suffix.

What does the data say about its 500 μM relative viability? Entry: NC(=O)c1ccc[n+]([C@@H]2O[C@H](COP(=O)([O-])O)C(O)C2F)c1 (some centres unmarked) [ara-F-NMN]
0

Fill blank: measured 500 μM relative viability of the molecule NC(=O)c1ccc[n+]([C@@H]2O[C@H](COP(=O)([O-])OP(=O)(O)OC[C@H]3O[C@@H](n4cnc5c(N)ncnc54)[C@H](O)[C@@H]3O)[C@@H](O)C2(F)F)c1 is ____.
0.6844

Which 500 μM relative viability value belongs to NC(=O)c1ccc[n+]([C@@H]2O[C@H](COP(=O)([O-])OP(=O)(O)OC[C@H]3O[C@@H](n4cnc5c(N)ncnc54)[C@H](O)[C@@H]3O)[C@@H](O)[C@@H]2F)c1 ?
0.5729

Name the recorded 500 μM relative viability for NC(=O)c1ccc[n+]([C@@H]2O[C@H](COP(=O)([O-])O)C(O)C2(F)F)c1 (some centres unmarked) .
0

I would be grateful if you could share the reported 500 μM relative viability for NC(=O)c1ccc[n+]([C@@H]2O[C@H](COP(=O)([O-])O)C(O)C2F)c1 (some centres unmarked) [ribo-F-NMN] .
0.4331

Please give the measured 500 μM relative viability for this molecule: NC(=O)c1ccc[n+]([C@@H]2O[C@H](CO)C(O)C2F)c1 (some centres unmarked)
0.5499

Returns the measured 500 μM relative viability for the input molecule. Input: NC(=O)c1ccc[n+]([C@@H]2O[C@H](CO)[C@@H](O)C2(F)F)c1
0.6289

Return reported 500 μM relative viability; argument: NC(=O)c1ccc[n+]([C@@H]2O[C@H](CO)C(O)[C@@H]2F)c1 (some centres unmarked)
0.00066

----------
system: HEK293 cells; test: Toxicity to HEK293 cells (MTT); type: cell-based; settings: HEK293, 100 μM, 12 hours, MTT 1.5 hours, 570 nm
Parameter: 100 μM absorbance
Give the value as a plain number.

Please look up its 100 μM absorbance: NC(=O)c1ccc[n+]([C@@H]2O[C@H](COP(=O)([O-])O)C(O)C2F)c1 (stereo partly drawn) [ara-F-NMN]
1.267

Using the record for NC(=O)c1ccc[n+]([C@@H]2O[C@H](COP(=O)([O-])O)C(O)C2(F)F)c1 (stereo partly drawn) [gem-diF-NMN] , report its 100 μM absorbance.
1.559

Field request: 100 μM absorbance | item: NC(=O)c1ccc[n+]([C@@H]2O[C@H](COP(=O)([O-])OP(=O)(O)OC[C@H]3O[C@@H](n4cnc5c(N)ncnc54)[C@H](O)[C@@H]3O)[C@@H](O)C2(F)F)c1 [gem-diF-NAD, 2′-deoxy-2′,2′-difluoro-NAD^+]
1.797
